The measurements presented in this section are drawn from patent US20140213531A1.

Target: Trypsin, Iodination grade, from human pancreas (human, UniProt P07477 24-247)
Assay: cell-based or functional assay
measured.endpoint: % inhibition at 100 µM (%)
Field format: number, assumed %, no unit text.

ICTKSDPPQCR (HELM PEPTIDE1{I.C.T.K.S.D.P.P.Q.C.R.[dP].P}$PEPTIDE1,PEPTIDE1,2:R3-10:R3|PEPTIDE1,PEPTIDE1,1:R1-13:R2$$$V2.0; SMILES CC[C@H](C)[C@@H]1NC(=O)[C@@H]2CCCN2C(=O)[C@H]2CCCN2C(=O)[C@H](CCCNC(=N)N)NC(=O)[C@@H]2CSSC[C@H](NC1=O)C(=O)N[C@@H]([C@@H](C)O)C(=O)N[C@@H](CCCCN)C(=O)N[C@@H](CO)C(=O)N[C@@H](CC(=O)O)C(=O)N1CCC[C@H]1C(=O)N1CCC[C@H]1C(=O)N[C@@H](CCC(N)=O)C(=O)N2) [Example 17] : 90
RXTKSDPPIXF (HELM PEPTIDE1{R.[Nle].T.K.S.D.P.P.I.[Nle].F.[dP].P}$PEPTIDE1,PEPTIDE1,1:R1-13:R2$$$V2.0; SMILES CCCC[C@@H]1NC(=O)[C@H](CCCNC(=N)N)NC(=O)[C@@H]2CCCN2C(=O)[C@H]2CCCN2C(=O)[C@H](Cc2ccccc2)NC(=O)[C@H](CCCC)NC(=O)[C@H]([C@@H](C)CC)NC(=O)[C@@H]2CCCN2C(=O)[C@@H]2CCCN2C(=O)[C@H](CC(=O)O)NC(=O)[C@H](CO)NC(=O)[C@H](CCCCN)NC(=O)[C@H]([C@@H](C)O)NC1=O) [Example 8] : 74.2
FCTKSDPPICS (HELM PEPTIDE1{F.C.T.K.S.D.P.P.I.C.S.[dI].P}$PEPTIDE1,PEPTIDE1,2:R3-10:R3|PEPTIDE1,PEPTIDE1,1:R1-13:R2$$$V2.0; SMILES CC[C@@H](C)[C@H]1NC(=O)[C@H](CO)NC(=O)[C@@H]2CSSC[C@H](NC(=O)[C@H](Cc3ccccc3)NC(=O)[C@@H]3CCCN3C1=O)C(=O)N[C@@H]([C@@H](C)O)C(=O)N[C@@H](CCCCN)C(=O)N[C@@H](CO)C(=O)N[C@@H](CC(=O)O)C(=O)N1CCC[C@H]1C(=O)N1CCC[C@H]1C(=O)N[C@@H]([C@@H](C)CC)C(=O)N2) [Example 50] : 94
ICTXSDPPICR (HELM PEPTIDE1{I.C.T.[Nle].S.D.P.P.I.C.R.[dP].P}$PEPTIDE1,PEPTIDE1,2:R3-10:R3|PEPTIDE1,PEPTIDE1,1:R1-13:R2$$$V2.0; SMILES CCCC[C@@H]1NC(=O)[C@H]([C@@H](C)O)NC(=O)[C@@H]2CSSC[C@H](NC(=O)[C@H]([C@@H](C)CC)NC(=O)[C@@H]3CCCN3C(=O)[C@@H]3CCCN3C(=O)[C@H](CC(=O)O)NC(=O)[C@H](CO)NC1=O)C(=O)N[C@@H](CCCNC(=N)N)C(=O)N1CCC[C@@H]1C(=O)N1CCC[C@H]1C(=O)N[C@@H]([C@@H](C)CC)C(=O)N2) [Example 22] : 84
FCTKSEPPICT (HELM PEPTIDE1{F.C.T.K.S.E.P.P.I.C.T.[dP].P}$PEPTIDE1,PEPTIDE1,2:R3-10:R3|PEPTIDE1,PEPTIDE1,1:R1-13:R2$$$V2.0; SMILES CC[C@H](C)[C@@H]1NC(=O)[C@@H]2CCCN2C(=O)[C@@H]2CCCN2C(=O)[C@H](CCC(=O)O)NC(=O)[C@H](CO)NC(=O)[C@H](CCCCN)NC(=O)[C@H]([C@@H](C)O)NC(=O)[C@@H]2CSSC[C@H](NC1=O)C(=O)N[C@@H]([C@@H](C)O)C(=O)N1CCC[C@@H]1C(=O)N1CCC[C@H]1C(=O)N[C@@H](Cc1ccccc1)C(=O)N2) [Example 1] : 92.6
ICTKSDPPXCR (HELM PEPTIDE1{I.C.T.K.S.D.P.P.[Nle].C.R.[dP].P}$PEPTIDE1,PEPTIDE1,2:R3-10:R3|PEPTIDE1,PEPTIDE1,1:R1-13:R2$$$V2.0; SMILES CCCC[C@@H]1NC(=O)[C@@H]2CCCN2C(=O)[C@@H]2CCCN2C(=O)[C@H](CC(=O)O)NC(=O)[C@H](CO)NC(=O)[C@H](CCCCN)NC(=O)[C@H]([C@@H](C)O)NC(=O)[C@@H]2CSSC[C@H](NC1=O)C(=O)N[C@@H](CCCNC(=N)N)C(=O)N1CCC[C@@H]1C(=O)N1CCC[C@H]1C(=O)N[C@@H]([C@@H](C)CC)C(=O)N2) [Example 19] : 94

Please turn your attention to the following entry.
Using known records, supply % inhibition at 100 µM for XCTKSDPPICD (HELM PEPTIDE1{[O=C([C@@H](N[*:1])C1CCCCC1)[*:2]].C.T.K.S.D.P.P.I.C.D.[dP].P}$PEPTIDE1,PEPTIDE1,2:R3-10:R3|PEPTIDE1,PEPTIDE1,1:R1-13:R2$$$V2.0; SMILES CC[C@H](C)[C@@H]1NC(=O)[C@@H]2CCCN2C(=O)[C@@H]2CCCN2C(=O)[C@H](CC(=O)O)NC(=O)[C@H](CO)NC(=O)[C@H](CCCCN)NC(=O)[C@H]([C@@H](C)O)NC(=O)[C@@H]2CSSC[C@H](NC1=O)C(=O)N[C@@H](CC(=O)O)C(=O)N1CCC[C@@H]1C(=O)N1CCC[C@H]1C(=O)N[C@@H](C1CCCCC1)C(=O)N2) [Example 39] 94
